kon by entry:
Experimental Target: T1, hRET.mmh (human, UniProt P07949 29-635, biotinylated in the ELISA of Example 4 (biot-hRET.mmh); not in the SPR of Example 3)
T1 construct: also called biot-hRET.mmh; soluble monomeric human RET
Assay Explanation: SPR Biacore T200, mAb capture, 25 C
The response must be a number in M⁻¹ s⁻¹ with no trailing unit.

Solved cases (2 shown):
Binder	Quantity Name	Val
H4H8066P (antibody, human IgG4, V domains shown, human IgG4 Fc (H4H prefix)) VH: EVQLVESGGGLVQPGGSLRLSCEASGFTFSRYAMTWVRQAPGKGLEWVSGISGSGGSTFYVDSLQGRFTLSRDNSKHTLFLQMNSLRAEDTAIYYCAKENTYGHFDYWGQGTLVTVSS VL: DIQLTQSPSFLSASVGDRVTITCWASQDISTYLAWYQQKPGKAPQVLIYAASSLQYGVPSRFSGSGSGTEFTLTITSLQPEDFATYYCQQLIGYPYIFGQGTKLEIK	kon	127000
H4H8046P (antibody, human IgG4, V domains shown, human IgG4 Fc (H4H prefix)) VH: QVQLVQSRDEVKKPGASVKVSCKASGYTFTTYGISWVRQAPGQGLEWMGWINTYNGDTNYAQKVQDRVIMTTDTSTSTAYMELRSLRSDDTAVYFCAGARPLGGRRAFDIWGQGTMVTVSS VL: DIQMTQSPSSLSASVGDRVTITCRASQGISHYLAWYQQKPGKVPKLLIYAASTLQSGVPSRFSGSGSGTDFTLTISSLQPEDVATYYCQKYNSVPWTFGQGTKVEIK	kon	306000

Pending binder:
Entry H4H8084P (antibody, human IgG4, V domains shown, human IgG4 Fc (H4H prefix)) VH: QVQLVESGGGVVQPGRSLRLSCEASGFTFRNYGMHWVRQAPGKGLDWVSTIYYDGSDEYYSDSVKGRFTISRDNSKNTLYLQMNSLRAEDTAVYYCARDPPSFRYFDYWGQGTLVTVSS VL: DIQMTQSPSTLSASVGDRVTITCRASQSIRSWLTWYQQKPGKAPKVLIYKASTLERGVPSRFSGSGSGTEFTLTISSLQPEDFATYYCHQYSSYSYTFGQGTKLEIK has what kon?
723000
